- TESTED_ON: CarD·RNAP binding (CarD association with RPo) (Mycobacterium tuberculosis, UniProt P9WGY7+P9WGY9+P9WJG3, D68C)
- CONDITION_SUMMARY: read-out: CarD-BODIPY-FL assay CCG sample IC50
Consider the following compounds; for each one, report its pIC50.
Give bare numbers, as −log10 of the molar value.

Look over these answered cases.
INSERT INTO assay_data (compound, obs_value) VALUES
  ('CC(=O)Nc1ccc(NC(=O)c2ccccc2C(=O)O)cn1 [CCG-52160]', 4.43),
  ('CN(C)c1ncnc(Oc2ccc(Cl)cc2)c1[N+](=O)[O-] [CCG-247600]', 3.60),
  ('COC(=O)c1noc(C)c1C(=O)/C=C/N1CCCCC1 [CCG-42210]', 3.97),
  ('CCC(=O)Nc1cccc2c(NC(=O)CC)cccc12 [CCG-53654]', 4.82),
  ('NC(=O)c1ccc(CC(=O)c2ccc(Cl)cc2)cc1 [CCG-251660]', 3.97);

Would you mind listing pIC50 for each of the following compounds?
1. Cc1cc2c(NC(=O)Nc3ccccc3)cccc2nn1 [CCG-237488]
2. O=C(NC(=O)N1CCCC1)C1CCN(c2cnc3ccccc3n2)CC1 [CCG-52363]
3. CC(=O)c1sc2nsc(SCCN3CCCC3)c2c1N [CCG-239496]
4. CC(=O)Nc1ccc(NC(=O)c2nccnc2C(=O)O)cn1 [CCG-52573]
5. O=C(O)c1ccc(-c2nc3ccc(-c4ccc5nc(-c6ccc(C(=O)O)cc6)[nH]c5c4)cc3[nH]2)cc1 [CCG-249580]

[4.60, 4.22, 4.05, 4.11, 3.58]

* * *

- TESTED_ON: CarD·RNAP binding (CarD association with RPo) (Mycobacterium tuberculosis, UniProt P9WGY7+P9WGY9+P9WJG3, D68C)
- CONDITION_SUMMARY: read-out: CarD-BODIPY-FL assay Powder sample IC50
MEASUREMENT_TYPE: log10 IC50 (log10 of the value in µM)
The base-10 logarithm of IC50, taken with IC50 in µM, is what appears here.

Look over these answered cases.
INSERT INTO measurements (chemical_smiles, obs_value) VALUES
  ('CN(C)c1ncnc(Oc2ccc(Cl)cc2)c1[N+](=O)[O-]', 2.12),
  ('CC(=O)c1sc2nsc(SCCN3CCCC3)c2c1N', 1.67),
  ('NC(=O)c1ccc(CC(=O)c2ccc(Cl)cc2)cc1', 1.57);

Would you mind listing log10 IC50 for each of the following compounds?
1. CC(=O)Nc1ccc(NC(=O)c2nccnc2C(=O)O)cn1
2. CC(=O)Nc1ccc(NC(=O)c2ccccc2C(=O)O)cn1
3. COC(=O)c1noc(C)c1C(=O)/C=C/N1CCCCC1
4. O=C(O)c1ccc(-c2nc3ccc(-c4ccc5nc(-c6ccc(C(=O)O)cc6)[nH]c5c4)cc3[nH]2)cc1
5. CCC(=O)Nc1cccc2c(NC(=O)CC)cccc12
6. O=C(NC(=O)N1CCCC1)C1CCN(c2cnc3ccccc3n2)CC1

1. 2.20
2. 2.83
3. 1.93
4. 2.31
5. 2.27
6. 2.30
